Target: CRD-BP WT (mouse)
Test: EMSA
Details: EMSA as in refs 21,22 (buffer not given; competitor preincubation 35 C); FP: binding buffer stock 10 mM Tris-HCl pH 7.4, 2.5 mM EDTA, 5% glycerol, 0.002% …

- Sequence Chain: "GGAUUGUACAAAUAAGUGUGCAGUAUCUGUGAACUGAAUUCACCACAGACUUUAGCUUUCUGAGCAAGAGGAUUUUGCGUCAGAGAAAUGUCUGUCCAUUUUUAUUCAGGGGAAACUUGAUU [MITF RNA 1550-1669]"
  binding: "binds"
